Measured pIC50 by item
# System: forty-four human cancer cell lines
# ASSAY: Cell proliferation assay (ATPlite, 72 hours) in the 44 cell line Oncolines panel
# Assay type: cell-based
# MEASUREMENT_CONTEXT: Homo sapiens, SHP77, read-out: cell panel IC50, SHP-77
Schema: pIC50 number; meaning minus log10 of the concentration expressed in molar units.

Examples with answers:
TEST_SMILES: CCN(CC)CCNC(=O)c1c(C)[nH]c(/C=C2\C(=O)Nc3ccc(F)cc32)c1C
ENDPOINT_VALUE: 5.24
//
TEST_SMILES: N#CC[C@H](C1CCCC1)n1cc(-c2ncnc3[nH]ccc23)cn1
ENDPOINT_VALUE: 4.51

I am curious: what pIC50 value has been reported for CN(C)C/C=C/C(=O)Nc1cc2c(Nc3ccc(F)c(Cl)c3)ncnc2cc1O[C@H]1CCOC1 ?
5.44

I am curious: what pIC50 value has been reported for Cc1ccc(C(=O)Nc2ccc(CN3CCN(C)CC3)c(C(F)(F)F)c2)cc1C#Cc1cnc2cccnn12 ?
5.19
